assay.details: AUC in rat at 10 mg/kg, iv
Format: ADME, organism-based
Set-up: dose 10 mg/kg, route intravenous
conditions.used: plasma
measured.property: AUC (µM·h)
One number for each entry, in µM·h.

Inquiry: Specify measured AUC for CC(C)(C)[C@H](NC(=O)NC1(C(=O)OCc2ccccc2)CCCCC1)C(=O)N1C[C@H]2[C@@H]([C@H]1C(=O)NC(CC1CC1)C(=O)C(N)=O)C2(C)C (mixture of isomers) .
Reply text: 9.3

====

assay.details: Inhibition of HCV NS4A-tethered single chain NS3 serine protease by spectrophotometric assay
Design: species or system Hepacivirus hominis
measured.property: pKi
Numbers only, as −log10 of the molar value.

Solved cases (3 shown):
>>> recorded_value("C=CCNC(=O)C(=O)C(CCC)NC(=O)[C@@H]1[C@@H]2[C@H](CN1C(=O)[C@@H](NC(=O)N[C@H](C(=O)C1CC1)C(C)C)C(C)(C)C)C2(C)C (mixture of isomers)")
7.60
>>> recorded_value("CC(C)(NC(=O)N[C@H](C(=O)N1C[C@H]2[C@@H]([C@H]1C(=O)NC(CC1CC1)C(=O)C(N)=O)C2(C)C)C(C)(C)C)C(=O)OCc1ccccc1 (mixture of isomers)")
6.68
>>> recorded_value("CC(C)[C@H](NC(=O)N[C@H](C(=O)N1C[C@H]2[C@@H]([C@H]1C(=O)NC(CC1CC1)C(=O)C(N)=O)C2(C)C)C(C)(C)C)C(=O)c1ccccc1 (mixture of isomers)")
8.30

Hi there! I need pKi for each item below, if you can.
1. CC(C)[C@H](NC(=O)N[C@H](C(=O)N1C[C@H]2[C@@H]([C@H]1C(=O)NC(CC1CC1)C(=O)C(N)=O)C2(C)C)C(C)(C)C)C(=O)C(C)(C)C (mixture of isomers)
2. C#CCCC(NC(=O)[C@@H]1[C@@H]2[C@H](CN1C(=O)[C@@H](NC(=O)N[C@H](C(=O)C1CC1)C1CCCCC1)C(C)(C)C)C2(C)C)C(=O)C(=O)NCC=C (mixture of isomers)

Reply text:
1: 7.92; 2: 8.05

====

assay.details: Inhibition of HCV NS4A-tethered single chain NS3 serine protease by spectrophotometric assay
Parameters: species or system Hepacivirus hominis
measured.property: log10 Ki (log10 of the value in nM)
Log scale reminder: Ki in nM, then log10 taken.

Below, each entry is followed by its recorded log10 Ki result.
>>> recorded_value("CC(C)[C@H](NC(=O)N[C@H](C(=O)N1C[C@H]2[C@@H]([C@H]1C(=O)NC(CC1CC1)C(=O)C(N)=O)C2(C)C)C(C)(C)C)C(=O)OCc1ccccc1 (mixture of isomers)")
1.11
>>> recorded_value("CC(C)(C)[C@H](NC(=O)NC1(C(=O)OCc2ccccc2)CC1)C(=O)N1C[C@H]2[C@@H]([C@H]1C(=O)NC(CC1CC1)C(=O)C(N)=O)C2(C)C (mixture of isomers)")
2.23
>>> recorded_value("CC(C)[C@H](NC(=O)N[C@H](C(=O)N1C[C@H]2[C@@H]([C@H]1C(=O)NC(CC1CC1)C(=O)C(N)=O)C2(C)C)C(C)(C)C)c1nnn[nH]1 (mixture of isomers)")
1.00
>>> recorded_value("CC(C)[C@H](NC(=O)N[C@H](C(=O)N1C[C@H]2[C@@H]([C@H]1C(=O)NC(CC1CC1)C(=O)C(N)=O)C2(C)C)C(C)(C)C)C(=O)O[C@H](C)c1ccccc1 (mixture of isomers)")
1.90

Working through the 3 molecules below one at a time, give log10 Ki for each.
1. CC(C)(C)[C@H](NC(=O)NC1(C(=O)c2ccccc2)CCCCC1)C(=O)N1C[C@H]2[C@@H]([C@H]1C(=O)NC(CC1CC1)C(=O)C(N)=O)C2(C)C (mixture of isomers)
2. CC(C)(C)[C@H](NC(=O)NC1(C(=O)O)CCCCC1)C(=O)N1C[C@H]2[C@@H]([C@H]1C(=O)NC(CC1CC1)C(=O)C(N)=O)C2(C)C (mixture of isomers)
3. CC(C)[C@@H](Cc1ccccc1)NC(=O)N[C@H](C(=O)N1C[C@H]2[C@@H]([C@H]1C(=O)NC(CC1CC1)C(=O)C(N)=O)C2(C)C)C(C)(C)C (mixture of isomers)

Reply text:
2.00
0.95
1.77

# per-item lookup of log10 Ki; items listed below
1. CC(C)(C)[C@H](NC(=O)NC1(COC(=O)c2ccccc2)CCCCC1)C(=O)N1C[C@H]2[C@@H]([C@H]1C(=O)NC(CC1CC1)C(=O)C(N)=O)C2(C)C (mixture of isomers)
2. C[C@@H](OC(=O)C1(NC(=O)N[C@H](C(=O)N2C[C@H]3[C@@H]([C@H]2C(=O)NC(CC2CC2)C(=O)C(N)=O)C3(C)C)C(C)(C)C)CCCCC1)c1ccccc1 (mixture of isomers)
3. CC1(NC(=O)N[C@H](C(=O)N2C[C@H]3[C@@H](C2C(=O)NC(CC2CCC2)C(=O)C(N)=O)C3(C)C)C(C)(C)C)CCCCC1 (stereo not given in full)

Reply text:
2.08
1.90
0.90
